assay: NCI Yeast Anticancer Drug Screen. Data for the wt1 strain (AID 149);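 further: 0% = growth of vehicle-treated wt1 cultures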; settings: S. cerevisiae wt1 strain (SPY 50644) growth inhibition; at 11.0 µM; hits give high values
This is part of a sample that, as a whole, favours compounds with a hit. Of some 79,000 tested, about 15% had one in any assay.
readout_type: growth inhibition (%)

entry_smiles | readout_type | reading_unit | readout_value
CCOc1ccccc1N=Cc1c2ccccc2cc2ccccc12 | growth inhibition | % | 95
Oc1ccc(-c2nc(-c3ccc(F)cc3)c(-c3ccc4ccccc4n3)[nH]2)cc1 | growth inhibition | % | 64
Oc1cccc2cc(Cl)cnc12 | growth inhibition | % | 20
COc1ccc([N+](=O)[O-])c2c(NCCCN(C)C)c3ccccc3nc12 | growth inhibition | % | 3
O=C1c2ccccc2C(=O)N1CCCC(=O)n1cc(F)c(=O)[nH]c1=O | growth inhibition | % | -26
OCC(CO)C(c1cccc2ccccc12)c1cccc2ccccc12 | growth inhibition | % | 98
